molecular target: GCN2 kinase (Homo sapiens, UniProt Q9P2K8); assay: GCN2 enzyme inhibition assay (Transcreener ADP2 fluorescence polarization); type: biochemical; settings: Enzyme activity for compounds of Formula IV; Ki(app), 280 μM ATP, 25° C.
Sequence (Q9P2K8 whole entry): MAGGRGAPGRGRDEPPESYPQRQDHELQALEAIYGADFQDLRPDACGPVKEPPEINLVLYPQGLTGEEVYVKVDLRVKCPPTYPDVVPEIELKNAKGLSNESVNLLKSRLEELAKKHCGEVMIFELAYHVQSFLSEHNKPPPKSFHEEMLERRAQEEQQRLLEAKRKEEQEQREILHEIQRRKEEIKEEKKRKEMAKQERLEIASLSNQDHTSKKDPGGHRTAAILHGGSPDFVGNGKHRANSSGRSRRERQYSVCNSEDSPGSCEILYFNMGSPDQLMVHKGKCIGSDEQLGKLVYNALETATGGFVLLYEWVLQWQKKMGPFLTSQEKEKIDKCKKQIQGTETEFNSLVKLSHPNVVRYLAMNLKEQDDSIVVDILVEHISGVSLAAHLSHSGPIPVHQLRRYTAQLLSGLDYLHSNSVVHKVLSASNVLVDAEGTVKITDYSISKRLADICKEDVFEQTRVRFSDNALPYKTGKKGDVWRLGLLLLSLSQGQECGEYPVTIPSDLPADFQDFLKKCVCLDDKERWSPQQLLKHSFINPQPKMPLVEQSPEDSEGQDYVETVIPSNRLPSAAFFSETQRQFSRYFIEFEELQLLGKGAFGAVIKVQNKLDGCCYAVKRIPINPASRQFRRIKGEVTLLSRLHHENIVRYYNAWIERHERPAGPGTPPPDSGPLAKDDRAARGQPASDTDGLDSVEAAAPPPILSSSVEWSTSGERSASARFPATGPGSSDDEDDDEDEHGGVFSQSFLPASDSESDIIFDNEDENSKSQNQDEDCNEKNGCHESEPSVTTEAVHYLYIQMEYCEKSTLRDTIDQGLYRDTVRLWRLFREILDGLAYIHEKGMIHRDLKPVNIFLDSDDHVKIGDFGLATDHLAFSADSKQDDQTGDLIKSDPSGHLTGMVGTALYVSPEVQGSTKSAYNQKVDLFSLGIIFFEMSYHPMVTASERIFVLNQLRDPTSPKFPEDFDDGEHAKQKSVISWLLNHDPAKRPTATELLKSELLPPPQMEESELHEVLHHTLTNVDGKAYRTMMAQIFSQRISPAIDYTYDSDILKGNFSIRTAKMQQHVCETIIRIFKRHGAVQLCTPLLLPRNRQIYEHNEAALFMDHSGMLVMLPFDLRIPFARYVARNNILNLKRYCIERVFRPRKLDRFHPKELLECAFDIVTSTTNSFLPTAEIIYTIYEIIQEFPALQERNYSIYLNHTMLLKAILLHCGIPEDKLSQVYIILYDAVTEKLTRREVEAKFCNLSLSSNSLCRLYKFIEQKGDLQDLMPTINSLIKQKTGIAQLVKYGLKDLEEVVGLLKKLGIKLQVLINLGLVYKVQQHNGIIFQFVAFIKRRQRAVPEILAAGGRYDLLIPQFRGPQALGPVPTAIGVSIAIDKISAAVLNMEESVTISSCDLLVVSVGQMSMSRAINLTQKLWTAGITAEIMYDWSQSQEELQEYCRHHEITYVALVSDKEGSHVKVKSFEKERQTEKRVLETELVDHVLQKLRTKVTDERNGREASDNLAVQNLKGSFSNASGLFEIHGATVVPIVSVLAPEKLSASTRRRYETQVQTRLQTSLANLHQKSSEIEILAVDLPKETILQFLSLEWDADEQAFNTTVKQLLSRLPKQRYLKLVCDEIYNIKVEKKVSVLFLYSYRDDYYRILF
readout.type: Ki

CS(=O)(=O)C1CCCN(c2ccnc(-c3cnc4cnc(C(F)F)cn34)n2)C1 (centres unmarked)
0.1 to 1 µM
COCCn1ccc(C(=O)N[C@H]2CCCN(c3ccnc(-c4cnc5cnc(C(F)(F)F)cn45)n3)C2)n1
> 1 µM
O=C(CO)N1CCN(c2ccnc(-c3cnc4cnc(C(F)(F)F)cn34)n2)CC1
0.1 to 1 µM
Brc1cn2c(-c3nccc(N4CCNC(c5c[nH]cn5)C4)n3)cnc2cn1 (centres unmarked)
0.01 to 0.1 µM
CC(=O)N1CCN(c2ccnc(-c3cnc4cnc(C(N)=O)cn34)n2)CC1
0.1 to 1 µM
CC(=O)N1CCN(c2ccnc(-c3cnc4cnc(-c5ccncc5)cn34)n2)CC1
0.01 to 0.1 µM
NC(=O)NCC1CCCN(c2ccnc(-c3cnc4cnc(C(F)(F)F)cn34)n2)C1 (centres unmarked)
0.1 to 1 µM
OCCC1CCCN(c2ccnc(-c3cnc4cnc(C(F)(F)F)cn34)n2)C1 (centres unmarked)
0.1 to 1 µM
NS(=O)(=O)c1cc2c(s1)CCN(c1ccnc(-c3cnc4cnc(C(F)(F)F)cn34)n1)C2
0.1 to 1 µM
Brc1cn2c(-c3nccc(N4CCCC(c5c[nH]cn5)C4)n3)cnc2cn1 (centres unmarked) [IV-363]
< 0.01 µM

Here is the next item to consider.
# input Note down Ki recorded for NS(=O)(=O)NCC1CCCN(c2ccnc(-c3cnc4cnc(C(F)F)cn34)n2)C1 (centres unmarked)
# output 0.1 to 1 µM

====

Reported values of IC50 for individual entries
target: intracellular GCN2 (phosphorylation of the GCN2 substrate eIF2α) (Homo sapiens); experiment: GCN2 cellular inhibition assay (AlphaScreen SureFire P-eIF2α Ser51, borrelidin-treated U2OS cells); type: cell-based; conditions: compounds of Formula II; biomarker assay, phosphorylated eIF2α Ser51 in borrelidin-treated U2OS cells
Sequence (Q9P2K8 whole entry): as above

FC(F)c1ccc2ncc(-c3cc(C4=CCOCC4)ncn3)n2n1 [II-357]
> 5 µM
CC1(C)CN(c2cc(-c3cnc4ccc(C(F)F)nn34)ccn2)C[C@H](CNS(C)(=O)=O)O1 [II-148]
< 0.5 µM
CS(=O)(=O)C1CCCN(c2cc(-c3cnc4ccc(C(F)F)nn34)ncn2)C1 (single isomer, unassigned) [II-529]
0.5 to 5 µM
CC1CC(CNS(C)(=O)=O)CN(c2cc(-c3cnc4ccc(C(F)F)nn34)ncn2)C1 (centres unmarked) [II-398]
0.5 to 5 µM
CC1C[S+]([O-])CCN1c1cc(-c2cnc3ccc(C(F)F)nn23)ncn1 (single isomer, unassigned) [II-356]
> 5 µM

# input For the molecule CC1CC(CNS(C)(=O)=O)CN1c1cc(-c2cnc3ccc(C(F)F)nn23)ncn1 (centres unmarked) [II-8] , give its reported IC50.
# output 0.5 to 5 µM

# input Write down IC50 measured for item FC(F)c1ccc2ncc(-c3cc(N4CCC5C(C4)C5(F)F)ncn3)n2n1 (centres unmarked) [II-274]
# output > 5 µM

# input Given CS(=O)(=O)NC1CCC2(CCN(c3cc(-c4cnc5ccc(C(F)F)nn45)ncn3)C2)C1 (single isomer, unassigned) [II-95] , respond with its IC50.
# output 0.5 to 5 µM
